SUBJECT_OF_TEST: T1, human IL-4Rα (hIL-4Rα) monomeric protein (human, UniProt P24394 26-232, limits assumed)
T1 construct: also called hIL-4Rα antigen; barcoded hIL-4Rα
ASSAY_EXPLANATION: Biacore (SPR)
pKd values by entry
Please express pKd as -log10 of the molar concentration.

In the examples that follow, each entry is paired with its recorded pKd.
Exam item: May I ask what pKd has been recorded for Table 1 Line # 37 antibody (SP_B_cell) (antibody, human IgG4, V domains shown, Cloned with human IgG4/human Igk constants for Kd; barcode counts are of the source cell's own IgG) VH: QVHLVESGGDVVQPGRSLRLSCAASGFTFSYYGMHWVRQAPFKGLEWVAVIWYDGSNKYYADSVKGRFTITRDNSKNTVYLQMNSLRAEDTAIYYCARWGGFGVTGTHLDYWGQGTLVTVSS VL: DIQLTQSPSLLSASVGDRVTITCWASQDIAGHFAWYQQKPGTVPKLLIYAISTLDSGVPSRFSGSRSGTEFTLTISSLQPEDFATYYCQHLNSYPYTFGQGTKLEIK ?
Marked response: 6.71

Exam item: May I ask what pKd has been recorded for Table 1 Line # 40 antibody (SP_Plasma_cell) (antibody, human IgG4, V domains shown, Cloned with human IgG4/human Igk constants for Kd; barcode counts are of the source cell's own IgG) VH: QVQLQESGPGLVKPSETLSLTCTISGGSISTYYWSWIRQPPGKGLEWIGYIYYSGNTNYNPSLKSRVTISVDTSKNQFSLKLNSVTAADTAVYYCARHRGSYVYGMDVWGQGTTVTVSS VL: DIQMTQSPSSLSASLVDRVTITCRASQTISSYLNWYQQKPGKAPKLLIYGASILQSGVPSRFSGSGSGTDFTLTISSLQPEDHAVYFCQQSYSSPTFGGGTKVEIK ?
Marked response: 6.93

// moving on: another record for pKd
Exam item: May I ask what pKd has been recorded for Table 1 Line # 41 antibody (SP_Plasma_cell) (antibody, human IgG4, V domains shown, Cloned with human IgG4/human Igk constants for Kd; barcode counts are of the source cell's own IgG) VH: EVQLVESGGGLVQPGRSLRLSCAASGFTFDDYAMHWVRQAPGRGLEWVSGISWKGDALGYADSVKGRFTISRDNAKNSLYLQMSSLRAEDTALYYCAKDTGSYHYYYGLDVWGQGTTVTVSS VL: DIQMTQSPSSLSASVGDRVTITCRASQGIRNDLGWYQQKPGKAPERLIYAASNLQSGVPSRFSGSGSGTEFTLTISSLQPEDFATFYCLQHYSYPLTFGGGTKVEIK ?
Marked response: 6.82
